Each entry below carries its recorded pIC50.
# subject of test: Dopamine Transporter (DAT) (Homo sapiens, UniProt Q01959)
# Construct: HA (N)
# Sequence (Q01959 whole entry): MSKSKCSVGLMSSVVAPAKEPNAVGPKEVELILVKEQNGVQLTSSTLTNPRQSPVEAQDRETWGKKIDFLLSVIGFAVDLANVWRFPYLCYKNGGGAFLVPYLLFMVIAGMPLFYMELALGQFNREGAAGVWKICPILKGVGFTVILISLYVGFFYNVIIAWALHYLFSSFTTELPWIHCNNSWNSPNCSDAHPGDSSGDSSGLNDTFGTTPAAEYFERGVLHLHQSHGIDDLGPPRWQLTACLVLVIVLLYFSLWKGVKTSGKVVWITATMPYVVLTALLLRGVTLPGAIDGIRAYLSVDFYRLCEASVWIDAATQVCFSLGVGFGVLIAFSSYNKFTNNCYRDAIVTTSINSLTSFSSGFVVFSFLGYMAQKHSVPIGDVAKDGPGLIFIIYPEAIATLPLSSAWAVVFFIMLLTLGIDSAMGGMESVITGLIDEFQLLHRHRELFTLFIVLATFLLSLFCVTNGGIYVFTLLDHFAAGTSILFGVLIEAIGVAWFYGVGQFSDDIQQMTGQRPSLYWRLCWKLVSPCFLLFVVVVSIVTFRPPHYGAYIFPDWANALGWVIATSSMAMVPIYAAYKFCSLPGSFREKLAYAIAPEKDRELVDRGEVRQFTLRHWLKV
# assay details: cell-based
pIC50: −log10 of the molar value.
measurement label: pIC50

INSERT INTO results (compound, measurement_label, result) VALUES
  ('CC[C@@H](c1cccc(O)c1)[C@@H](C)CN(C)C', 'pIC50', '< 5.00'),
  ('COc1cccc(C2(O)CCCCC2CN(C)C)c1 (centres unmarked)', 'pIC50', '< 5.00');

###

Dopamine Transporter (DAT) (Homo sapiens, UniProt Q01959): reported Ki for various compounds.
measurement label: Ki

INSERT INTO results (compound, result) VALUES
  ('CC[C@@H](c1cccc(O)c1)[C@@H](C)CN(C)C [Tapentadol]', '> 2000 nM'),
  ('COc1cccc(C2(O)CCCCC2CN(C)C)c1 (centres unmarked) [Tramadol]', '> 2000 nM');
